Listing of entries alongside the reported Relative Proliferation Fold Change 3F8 1:10.
- assay-target: T1, orthogonal hCD122 receptor (hoRb), hCD122 with H133D and Y134F (human, UniProt P14784 27-550); note: reference of the scale not given here
- T1 sequence: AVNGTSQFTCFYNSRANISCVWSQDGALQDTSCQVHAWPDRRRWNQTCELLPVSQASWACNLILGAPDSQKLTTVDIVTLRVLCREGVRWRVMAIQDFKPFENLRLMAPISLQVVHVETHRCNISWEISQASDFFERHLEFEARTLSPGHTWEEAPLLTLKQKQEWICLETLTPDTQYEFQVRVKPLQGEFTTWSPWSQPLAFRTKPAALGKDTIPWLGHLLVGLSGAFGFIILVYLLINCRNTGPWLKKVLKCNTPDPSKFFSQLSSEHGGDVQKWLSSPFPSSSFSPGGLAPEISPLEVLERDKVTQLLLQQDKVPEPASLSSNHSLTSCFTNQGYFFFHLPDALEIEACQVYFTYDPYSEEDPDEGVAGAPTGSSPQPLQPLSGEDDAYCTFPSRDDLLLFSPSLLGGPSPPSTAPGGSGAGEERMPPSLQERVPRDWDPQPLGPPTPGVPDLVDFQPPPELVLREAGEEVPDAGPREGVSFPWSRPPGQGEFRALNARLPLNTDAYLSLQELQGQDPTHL
- test-summary: cell-based or functional assay
Value expressed in fold; do not type the unit.

Worked examples, 6 binders total:
[[record]]
binder = "T3C, SQVLKA (ligand) APCSSSTKKTQLQLSQLLVLLKAILNGINNYKNPKLTRMLTFKFYMPKKATELKHLQCLEEELKPLEEVLNLAQSKNFHLRPRDLISNINVIVLELKGSETTFMCEYADETATIVEFLNRWITFCQSIISTLT"
quantity_unit = "fold"
measured_result = 12.8

[[record]]
binder = "L18Q, SQVLKA (ligand) APTSSSTKKTQLQLSQLQVLLKAILNGINNYKNPKLTRMLTFKFYMPKKATELKHLQCLEEELKPLEEVLNLAQSKNFHLRPRDLISNINVIVLELKGSETTFMCEYADETATIVEFLNRWITFCQSIISTLT"
quantity_unit = "fold"
measured_result = 80.8

[[record]]
binder = "SQVLYA, E116G (ligand) APTSSSTKKTQLQLSQLLVLLYAILNGINNYKNPKLTRMLTFKFYMPKKATELKHLQCLEEELKPLEEVLNLAQSKNFHLRPRDLISNINVIVLELKGSETTFMCEYADETATIVEFLNRWITFCQSIISTLT"
quantity_unit = "fold"
measured_result = 9.79

[[record]]
binder = "SQVLKT (ligand) APTSSSTKKTQLQLSQLLVLLKTILNGINNYKNPKLTRMLTFKFYMPKKATELKHLQCLEEELKPLEEVLNLAQSKNFHLRPRDLISNINVIVLELKGSETTFMCEYADETATIVEFLNRWITFCQSIISTLT"
quantity_unit = "fold"
measured_result = 54.9

[[record]]
binder = "L80V, SQVLKA (ligand) APTSSSTKKTQLQLSQLLVLLKAILNGINNYKNPKLTRMLTFKFYMPKKATELKHLQCLEEELKPLEEVLNLAQSKNFHVRPRDLISNINVIVLELKGSETTFMCEYADETATIVEFLNRWITFCQSIISTLT"
quantity_unit = "fold"
measured_result = 38

[[record]]
binder = "C125S, SQVLKA (ligand) APTSSSTKKTQLQLSQLLVLLKAILNGINNYKNPKLTRMLTFKFYMPKKATELKHLQCLEEELKPLEEVLNLAQSKNFHLRPRDLISNINVIVLELKGSETTFMCEYADETATIVEFLNRWITFSQSIISTLT"
quantity_unit = "fold"
measured_result = 66.6


Exercise: Quick one: Relative Proliferation Fold Change 3F8 1:10 for SQVLIA (ligand) APTSSSTKKTQLQLSQLLVLLIAILNGINNYKNPKLTRMLTFKFYMPKKATELKHLQCLEEELKPLEEVLNLAQSKNFHLRPRDLISNINVIVLELKGSETTFMCEYADETATIVEFLNRWITFCQSIISTLT ?
Solution: 1.2

Exercise: Entry under review: L18W, SQVLKA (ligand) APTSSSTKKTQLQLSQLWVLLKAILNGINNYKNPKLTRMLTFKFYMPKKATELKHLQCLEEELKPLEEVLNLAQSKNFHLRPRDLISNINVIVLELKGSETTFMCEYADETATIVEFLNRWITFCQSIISTLT . Reported Relative Proliferation Fold Change 3F8 1:10?
Solution: 43.1

Exercise: Recorded Relative Proliferation Fold Change 3F8 1:10 for N88Q, SQVLKA (ligand) APTSSSTKKTQLQLSQLLVLLKAILNGINNYKNPKLTRMLTFKFYMPKKATELKHLQCLEEELKPLEEVLNLAQSKNFHLRPRDLISQINVIVLELKGSETTFMCEYADETATIVEFLNRWITFCQSIISTLT , please?
Solution: 0.84

Exercise: // Relative Proliferation Fold Change 3F8 1:10 lookup, key: ΔL19, SQ_LKA (ligand) APTSSSTKKTQLQLSQLLLLKAILNGINNYKNPKLTRMLTFKFYMPKKATELKHLQCLEEELKPLEEVLNLAQSKNFHLRPRDLISNINVIVLELKGSETTFMCEYADETATIVEFLNRWITFCQSIISTLT
Solution: 1.27

Exercise: Using the record for L85V, SQVLKA (ligand) APTSSSTKKTQLQLSQLLVLLKAILNGINNYKNPKLTRMLTFKFYMPKKATELKHLQCLEEELKPLEEVLNLAQSKNFHLRPRDVISNINVIVLELKGSETTFMCEYADETATIVEFLNRWITFCQSIISTLT , report its Relative Proliferation Fold Change 3F8 1:10.
Solution: 44.6

Exercise: What does the record list as Relative Proliferation Fold Change 3F8 1:10 for TQVLKA (ligand) APTSSSTKKTQLQLTQLLVLLKAILNGINNYKNPKLTRMLTFKFYMPKKATELKHLQCLEEELKPLEEVLNLAQSKNFHLRPRDLISNINVIVLELKGSETTFMCEYADETATIVEFLNRWITFCQSIISTLT ?
Solution: 16

Exercise: Return reported Relative Proliferation Fold Change 3F8 1:10; argument: T3N, SQVLKA (ligand) APNSSSTKKTQLQLSQLLVLLKAILNGINNYKNPKLTRMLTFKFYMPKKATELKHLQCLEEELKPLEEVLNLAQSKNFHLRPRDLISNINVIVLELKGSETTFMCEYADETATIVEFLNRWITFCQSIISTLT
Solution: 2.99

Exercise: Give the measured Relative Proliferation Fold Change 3F8 1:10 of Q126T, SQVLKA (ligand) APTSSSTKKTQLQLSQLLVLLKAILNGINNYKNPKLTRMLTFKFYMPKKATELKHLQCLEEELKPLEEVLNLAQSKNFHLRPRDLISNINVIVLELKGSETTFMCEYADETATIVEFLNRWITFCTSIISTLT .
Solution: 0.54

The reported measurements were obtained from patent US20210196796A1.
